- Assayed System: IDH1-R132H homodimer enzyme (Homo sapiens (Human), UniProt O75874, R132H)
- Sequence (O75874 whole entry R132H): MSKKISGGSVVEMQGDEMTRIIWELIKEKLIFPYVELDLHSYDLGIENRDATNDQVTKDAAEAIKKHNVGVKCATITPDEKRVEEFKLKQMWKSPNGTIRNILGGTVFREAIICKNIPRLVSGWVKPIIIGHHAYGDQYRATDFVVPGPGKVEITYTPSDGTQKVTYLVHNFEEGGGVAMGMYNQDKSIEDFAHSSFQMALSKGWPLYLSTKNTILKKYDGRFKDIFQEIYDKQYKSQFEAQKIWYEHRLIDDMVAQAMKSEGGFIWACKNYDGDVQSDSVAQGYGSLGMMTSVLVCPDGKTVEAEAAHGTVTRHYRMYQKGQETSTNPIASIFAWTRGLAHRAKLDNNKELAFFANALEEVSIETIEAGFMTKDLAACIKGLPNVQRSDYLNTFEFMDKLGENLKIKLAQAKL
- Test Method Notes: In vitro assay IDH1-R132H homodimer, NADPH depletion assay with NADPH/NADP preincubation
- Cond: 5 μM NADPH and 37.5 μM NADP
pIC50: −log10 of the molar value.
Reported Endpoint: pIC50

FC1(F)CCC(Nc2nc(NC3CCC(F)(F)CC3)nc(-c3c[nH]nc3C(F)(F)F)n2)CC1 [Compound 297] :: < 6.00

Look up pIC50 of CC(C)(C)OC(=O)N1CCC(Nc2nc(NC3CCC(F)(F)CC3)nc(-c3cccc(C(F)(F)F)n3)n2)CC1 [Compound 274] and report it.
< 6.00

Look up pIC50 of FC1(F)CCC(Nc2nc(NC3CCC(F)(F)C3)nc(-c3cccc(Cl)n3)n2)C1 (stereo not shown) [Compound 113] and report it.
> 7.30

Look up pIC50 of N#CC1(c2cc(Nc3nc(N[C@H]4CCC(F)(F)C4)nc(-c4cccc(C(F)(F)F)n4)n3)ccn2)CC1 [Compound 133] and report it.
7.00 to 7.30

Look up pIC50 of CC(F)(F)c1nc(-c2nc(NC3CC(F)(F)C3)nc(NC3CC(F)(F)C3)n2)cs1 [Compound 209] and report it.
6.00 to 7.00

Look up pIC50 of FC1(F)CC[C@H](Nc2nc(N[C@H]3CCC(F)(F)C3)nc(-c3cccc(C(F)(F)F)n3)n2)C1 [Compound 118] and report it.
> 7.30
